- measuredTarget: PKB (Homo sapiens, UniProt P31749)
- Sequence (P31749 whole entry): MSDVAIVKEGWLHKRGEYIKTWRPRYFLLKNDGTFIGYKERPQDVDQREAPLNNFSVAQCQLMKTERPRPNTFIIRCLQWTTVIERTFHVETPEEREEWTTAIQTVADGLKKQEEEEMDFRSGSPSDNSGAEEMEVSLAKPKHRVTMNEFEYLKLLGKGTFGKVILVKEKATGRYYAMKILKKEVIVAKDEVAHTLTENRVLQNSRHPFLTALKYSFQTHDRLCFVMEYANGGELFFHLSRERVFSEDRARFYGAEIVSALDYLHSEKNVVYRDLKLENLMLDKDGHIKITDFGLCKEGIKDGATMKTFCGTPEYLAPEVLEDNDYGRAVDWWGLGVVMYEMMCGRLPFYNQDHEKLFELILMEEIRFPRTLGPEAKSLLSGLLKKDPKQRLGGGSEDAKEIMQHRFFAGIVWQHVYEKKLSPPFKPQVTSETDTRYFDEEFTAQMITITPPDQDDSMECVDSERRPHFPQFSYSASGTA
quantityMeasured: IC50

* O=C(c1cc(=O)c2cc(O)ccc2o1)c1cc2c(cc1O)OCO2 | > 30 µM

----------
- measuredTarget: TIE-2 (Homo sapiens, UniProt Q02763)
- Sequence (Q02763 23-1124): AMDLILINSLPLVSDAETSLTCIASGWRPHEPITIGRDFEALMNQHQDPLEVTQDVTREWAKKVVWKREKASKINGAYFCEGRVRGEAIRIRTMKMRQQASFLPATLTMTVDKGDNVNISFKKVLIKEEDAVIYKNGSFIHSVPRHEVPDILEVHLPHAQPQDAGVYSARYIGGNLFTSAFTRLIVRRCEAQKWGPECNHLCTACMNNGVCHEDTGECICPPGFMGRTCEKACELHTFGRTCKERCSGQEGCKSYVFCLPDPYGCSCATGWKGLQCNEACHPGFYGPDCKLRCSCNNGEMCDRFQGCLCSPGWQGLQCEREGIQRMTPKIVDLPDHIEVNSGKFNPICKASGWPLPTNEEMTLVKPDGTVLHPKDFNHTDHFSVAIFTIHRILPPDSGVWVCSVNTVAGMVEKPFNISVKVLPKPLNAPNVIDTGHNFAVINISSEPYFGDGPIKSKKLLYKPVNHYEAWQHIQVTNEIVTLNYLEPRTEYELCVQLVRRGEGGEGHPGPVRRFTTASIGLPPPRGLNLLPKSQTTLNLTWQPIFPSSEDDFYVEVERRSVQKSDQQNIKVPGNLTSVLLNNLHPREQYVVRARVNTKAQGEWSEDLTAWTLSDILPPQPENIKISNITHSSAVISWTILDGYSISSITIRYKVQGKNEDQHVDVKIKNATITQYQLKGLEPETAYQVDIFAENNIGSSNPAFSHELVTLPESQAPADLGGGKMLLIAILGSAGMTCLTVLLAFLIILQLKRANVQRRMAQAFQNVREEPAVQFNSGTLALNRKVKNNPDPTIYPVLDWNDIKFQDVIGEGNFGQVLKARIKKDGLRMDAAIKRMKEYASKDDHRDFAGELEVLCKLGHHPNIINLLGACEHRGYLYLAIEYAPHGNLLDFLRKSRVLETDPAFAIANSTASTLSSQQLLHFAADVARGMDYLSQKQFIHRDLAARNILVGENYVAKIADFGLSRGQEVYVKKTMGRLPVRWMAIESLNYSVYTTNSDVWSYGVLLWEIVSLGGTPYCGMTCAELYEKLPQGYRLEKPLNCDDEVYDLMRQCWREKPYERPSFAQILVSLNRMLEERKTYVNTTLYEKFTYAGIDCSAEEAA
quantityMeasured: IC50 (µM)

- O=C(c1cc(=O)c2cc3c(cc2o1)OCO3)c1cc2c(cc1O)OCO2: 3.6
